Reference source: patent US10183943B2

Biological target: OXA-15 (Pseudomonas aeruginosa, UniProt Q51574)
Construct: made in house; host or cells: E. coli
Sequence (Q51574 22-275): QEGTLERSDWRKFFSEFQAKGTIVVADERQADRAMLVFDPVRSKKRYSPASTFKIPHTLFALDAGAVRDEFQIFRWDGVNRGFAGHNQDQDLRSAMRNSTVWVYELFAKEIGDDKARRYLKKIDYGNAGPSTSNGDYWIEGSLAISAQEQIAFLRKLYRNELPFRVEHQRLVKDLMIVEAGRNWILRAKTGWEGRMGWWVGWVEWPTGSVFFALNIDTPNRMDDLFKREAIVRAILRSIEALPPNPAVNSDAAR
Experiment: biochemical
assay metric: pIC50
FYI, pIC50 means -log10 of a concentration in mol per litre.

[in] For the compound O=C1N2CC=C(c3cnco3)C(C2)N1OS(=O)(=O)[O-].[Na+] (centres unmarked) , give its measured pIC50 value.
[out] 7.48

[in] For the compound Cn1ccc(C2=CCN3CC2N(OS(=O)(=O)[O-])C3=O)cc1=O.[Na+] (centres unmarked) [Example 13, sulfate] , give its measured pIC50 value.
[out] 6.64

[in] For the compound O=C1N2CC=C(c3ncco3)C(C2)N1OS(=O)(=O)[O-].[Na+] (centres unmarked) , give its measured pIC50 value.
[out] 7.34

[in] For the compound O=C1N2CC=C(c3cnoc3)C(C2)N1OC(F)(F)C(=O)[O-].[Li+] (centres unmarked) , give its measured pIC50 value.
[out] 7.55

[in] For the compound COc1ncc(C2=CCN3CC2N(OS(=O)(=O)[O-])C3=O)cn1.[Na+] (centres unmarked) [Example 24, sulfate] , give its measured pIC50 value.
[out] 7.32

[in] For the compound Cn1cnc(C2=CCN3CC2N(OS(=O)(=O)[O-])C3=O)cc1=O.[Na+] (centres unmarked) [Example 20, sulfate] , give its measured pIC50 value.
[out] 7.03

[in] For the compound O=C1N2CC(c3ccncc3)=CC(C2)N1OS(=O)(=O)[O-].[Na+] (centres unmarked) , give its measured pIC50 value.
[out] 6.96

[in] For the compound Cn1c(C2=CCN3CC2N(OS(=O)(=O)[O-])C3=O)cccc1=O.[Na+] (centres unmarked) [Example 18, sulfate] , give its measured pIC50 value.
[out] 7.85
